Experiment: Pharmacokinetics in Rhesus monkeys
Type: in vivo
Settings: rhesus monkey, in vivo, iv, 2 mg/kg, T1/2, Mean, IV 2 mg/kg
Measured metric: half-life (h)
Give the number; h is assumed, so skip it.

State the recorded half-life for this entry: `Cc1ccc2c(c1)c1c(n2CCc2ccccc2)CCN(C)C1` 1.63

----------
Assay: Pharmacokinetics in Rhesus monkeys
Type: in vivo
Conditions: rhesus monkey, in vivo, po, 10 mg/kg, Cmax, Mean, PO 10 mg/kg
Measured metric: Cmax

Requested field: Cmax. Item: Cc1ccc2c(c1)c1c(n2CCc2ccccc2)CCN(C)C1 [AVN-101] 66 ng/mL

----------
Test: Pharmacokinetics in Wistar rats, IV/IP/PO
Type: in vivo
Conditions: Wistar, rat, plasma, iv, 5 mg/kg, AUC0 ⟶240, IV 5 mg/kg
Measured metric: AUC
Field note: include the unit after the figure.

Would you mind telling me what AUC value was observed for `Cc1ccc2c(c1)c1c(n2CCc2ccccc2)CCN(C)C1` ? 721 ng·h/mL
